# Measurement target: RSV prefusion F (preF), DS-Cav1 (Respiratory syncytial virus, UniProt P03420 26-513)
# Test description: BLI, IgG on anti-human IgG sensor, 100 nM antigen
pKd: −log10 of the molar value.

Binder | pKd
ADI-41557 (antibody, V domains shown, also called Ab 839; Antibody Number 839) VH: EVQLLESGPGLVKPSETLSLTCNVSGGSISSYYWSWIRQSPGKGLEWIGHIYDTGYTNYNPSLKSRVTMSVDTSKNRFSLKLDSVTAADTAVYYCARGRGWRNLYNWFDPWGQGTLVTVSS VL: DIVMTQSPATLSVSPGERATLSCRTSQSFSSMLAWYQQKPGQAPRLLIYGASTRATGIPARFSGSGSATEFTLTISNLQSEDVAVYYCQQYNSWPLTFGGGTKVEIK | 7.51
